# measured on: JAK3 (Homo sapiens (Human), UniProt P52333)
# Sequence (P52333 whole entry): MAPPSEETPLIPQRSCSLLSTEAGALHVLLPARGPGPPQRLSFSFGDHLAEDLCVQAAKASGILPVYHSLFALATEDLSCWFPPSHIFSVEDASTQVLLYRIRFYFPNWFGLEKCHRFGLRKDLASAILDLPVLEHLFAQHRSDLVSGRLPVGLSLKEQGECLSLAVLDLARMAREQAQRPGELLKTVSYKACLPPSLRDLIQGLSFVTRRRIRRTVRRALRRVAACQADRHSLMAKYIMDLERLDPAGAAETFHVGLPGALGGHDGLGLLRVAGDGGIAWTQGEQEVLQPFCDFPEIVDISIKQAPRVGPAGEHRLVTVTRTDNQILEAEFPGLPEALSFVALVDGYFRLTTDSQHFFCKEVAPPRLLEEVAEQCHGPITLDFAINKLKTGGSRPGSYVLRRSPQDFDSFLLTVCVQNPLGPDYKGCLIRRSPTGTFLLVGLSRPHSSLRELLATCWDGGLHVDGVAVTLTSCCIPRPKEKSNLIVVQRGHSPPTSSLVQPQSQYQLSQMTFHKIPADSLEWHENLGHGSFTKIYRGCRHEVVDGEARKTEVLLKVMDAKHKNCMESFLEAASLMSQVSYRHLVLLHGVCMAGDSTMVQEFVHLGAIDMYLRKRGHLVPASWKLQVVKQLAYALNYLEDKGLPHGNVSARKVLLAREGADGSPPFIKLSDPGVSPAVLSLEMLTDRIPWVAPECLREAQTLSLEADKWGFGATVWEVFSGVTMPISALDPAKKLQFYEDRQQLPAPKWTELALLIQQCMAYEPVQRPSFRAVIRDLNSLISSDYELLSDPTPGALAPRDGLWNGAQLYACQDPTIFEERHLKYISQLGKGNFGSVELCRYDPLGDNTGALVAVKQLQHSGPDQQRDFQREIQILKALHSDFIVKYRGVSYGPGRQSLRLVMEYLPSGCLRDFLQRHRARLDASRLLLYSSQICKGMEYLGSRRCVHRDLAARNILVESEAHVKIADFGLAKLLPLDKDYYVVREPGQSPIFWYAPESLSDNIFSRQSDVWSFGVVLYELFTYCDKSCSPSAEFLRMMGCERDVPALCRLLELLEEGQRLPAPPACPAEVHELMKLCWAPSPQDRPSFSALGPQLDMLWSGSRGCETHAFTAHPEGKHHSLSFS
# assay notes: Z′-Lyte kinase inhibitory activity test
# Type: biochemical
# measurement parameters: ATP concentration Km
Consider the cut-off 60 nM. If the recorded IC50 is strictly smaller, the label is Yes; if not, the label is No.

INSERT INTO assay_data (compound, qualitative_label) VALUES
  ('C=CC(=O)Nc1cc(Nc2ncc(Cl)c(O[C@@H]3CO[C@H]4[C@@H]3OC[C@H]4O)n2)c(OC)cc1N1CCC(N2CCN(C)CC2)CC1 [LS 5-3]', 'No'),
  ('CN(C)C/C=C/C(=O)Nc1cc(Nc2ncc(Cl)c(O[C@@H]3CO[C@H]4[C@@H]3OC[C@H]4O)n2)ccc1N1CCC(N2CCN(C)CC2)CC1 [LS 5-81]', 'Yes'),
  ('C=CC(=O)Nc1cc(Nc2ncc(C)c(O[C@@H]3CO[C@H]4[C@@H]3OC[C@H]4O)n2)ccc1N1CCC(N2CCN(C)CC2)CC1 [LS 5-133]', 'Yes'),
  ('C/C=C/C(=O)Nc1cc(Nc2ncc(Cl)c(O[C@@H]3CO[C@H]4[C@@H]3OC[C@H]4O)n2)ccc1N1CCC(N2CCN(C)CC2)CC1 [LS 5-72]', 'No'),
  ('COc1cc(Nc2ncc(Cl)c(O[C@@H]3CO[C@H]4[C@@H]3OC[C@H]4O)n2)ccc1N1CCC(N2CCN(C)CC2)CC1 [LS 4-143]', 'Yes'),
  ('C=CC(=O)Nc1cc(Nc2ncc(Cl)c(O[C@@H]3CO[C@H]4[C@@H]3OC[C@H]4O)n2)ccc1N1C[C@@H]2C[C@H]1CO2 [LS 5-152]', 'Yes');

====

# assay notes: Rat liver microsomes stability test
# Type: in vitro ADME
# measurement parameters: rat, liver microsomes, pH 7.4, rat liver microsomes; calculated value beyond the 120 min limit; read-out: T1/2 (value in parentheses)
measurement name: half-life at 1 µM (h)

INSERT INTO measurements (compound, experimental_value) VALUES
  ('C=CC(=O)Nc1cc(Nc2ncc(Cl)c(O[C@@H]3CO[C@H]4[C@@H]3OC[C@H]4OC)n2)ccc1N(C)CCN(C)C [LS 6-45]', 2.5);

====

The following compounds each carry a recorded IC50 for TYK2 (Homo sapiens (Human)).
measurement name: IC50 (µM)

INSERT INTO assay_data (compound, experimental_value) VALUES
  ('C=CC(=O)Nc1cc(Nc2ncc(Cl)c(O[C@@H]3CO[C@H]4[C@@H]3OC[C@H]4O)n2)ccc1F [LS 5-62]', 0.86),
  ('C=CC(=O)Nc1cc(Nc2ncc(Cl)c(O[C@@H]3CO[C@H]4[C@@H]3OC[C@H]4OC)n2)ccc1N(C)CCN(C)C [LS 6-45]', 1.08),
  ('C=CC(=O)Nc1cc(Nc2ncc(Cl)c(O[C@@H]3CO[C@H]4[C@@H]3OC[C@H]4O)n2)ccc1N(C)CCO [LS 5-74]', 0.226),
  ('C=CC(=O)Nc1cc(Nc2ncc(Cl)c(O[C@@H]3CO[C@H]4[C@@H]3OC[C@H]4O)n2)ccc1N1CCOCC1 [LS 5-66]', 0.335),
  ('C=CC(=O)Nc1cc(Nc2ncc(Cl)c(O[C@@H]3CO[C@@H]4CCO[C@@H]43)n2)ccc1N(C)CCN(C)C [LS 6-121]', 0.278),
  ('C=CC(=O)Nc1cc(Nc2ncc(Cl)c(O[C@@H]3CO[C@H]4[C@@H]3OC[C@H]4F)n2)ccc1N1CCN(CC)CC1 [LS 6-89]', 0.805),
  ('C=CC(=O)Nc1cccc(Nc2ncc(Cl)c(O[C@@H]3CO[C@H]4[C@@H]3OC[C@H]4O)n2)c1 [LS 5-77]', 0.0939);

====

# measured on: JAK1 (Homo sapiens (Human), UniProt P23458)
# Sequence (P23458 whole entry): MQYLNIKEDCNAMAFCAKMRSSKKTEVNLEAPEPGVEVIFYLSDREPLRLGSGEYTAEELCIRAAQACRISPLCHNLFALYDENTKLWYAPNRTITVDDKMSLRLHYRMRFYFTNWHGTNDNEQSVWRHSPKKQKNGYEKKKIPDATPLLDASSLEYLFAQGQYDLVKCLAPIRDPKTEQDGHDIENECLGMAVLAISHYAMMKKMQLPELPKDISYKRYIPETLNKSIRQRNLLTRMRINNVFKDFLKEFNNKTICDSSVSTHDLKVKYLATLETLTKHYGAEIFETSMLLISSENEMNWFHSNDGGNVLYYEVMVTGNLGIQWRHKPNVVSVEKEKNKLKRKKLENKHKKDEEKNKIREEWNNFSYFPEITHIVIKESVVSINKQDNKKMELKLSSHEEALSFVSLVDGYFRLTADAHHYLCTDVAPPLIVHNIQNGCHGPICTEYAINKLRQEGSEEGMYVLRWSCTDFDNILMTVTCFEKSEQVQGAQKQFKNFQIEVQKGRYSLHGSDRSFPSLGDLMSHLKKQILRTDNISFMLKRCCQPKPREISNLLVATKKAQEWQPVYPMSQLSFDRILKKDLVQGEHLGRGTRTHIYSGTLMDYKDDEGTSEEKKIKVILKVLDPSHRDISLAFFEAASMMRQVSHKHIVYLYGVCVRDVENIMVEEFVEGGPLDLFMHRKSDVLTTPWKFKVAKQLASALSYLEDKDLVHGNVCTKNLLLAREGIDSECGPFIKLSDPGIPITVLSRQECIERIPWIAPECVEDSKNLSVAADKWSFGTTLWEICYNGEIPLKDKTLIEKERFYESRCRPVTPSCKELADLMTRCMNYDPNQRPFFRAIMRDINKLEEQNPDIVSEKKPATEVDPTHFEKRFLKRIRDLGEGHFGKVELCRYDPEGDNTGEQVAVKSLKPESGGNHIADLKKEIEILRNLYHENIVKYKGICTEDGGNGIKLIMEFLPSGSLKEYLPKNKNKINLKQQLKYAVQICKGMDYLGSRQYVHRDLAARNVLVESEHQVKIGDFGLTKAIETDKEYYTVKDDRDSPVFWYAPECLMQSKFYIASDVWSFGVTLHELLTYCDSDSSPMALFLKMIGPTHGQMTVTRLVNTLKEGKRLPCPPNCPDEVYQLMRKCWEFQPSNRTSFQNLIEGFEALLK
# assay notes: Z′-Lyte kinase inhibitory activity test
# Format: biochemical
# measurement parameters: ATP concentration Km
In this section we review reported IC50 values for a set of compounds.
measurement name: IC50 (nM)

INSERT INTO measurements (compound, unit_tag, experimental_value) VALUES
  ('C=CC(=O)Nc1cc(Nc2ncc(Cl)c(O[C@@H]3CO[C@H]4[C@@H]3OC[C@H]4OC)n2)ccc1N(C)CCN(C)C [LS 6-45]', 'nM', 13000),
  ('C=CC(=O)Nc1cc(Nc2ncc(Cl)c(O[C@@H]3CO[C@H]4[C@@H]3OC[C@H]4O)n2)ccc1N1CCOCC1 [LS 5-66]', 'nM', 1120),
  ('C=CC(=O)Nc1cc(Nc2ncc(Cl)c(O[C@@H]3CO[C@H]4[C@@H]3OC[C@H]4O)n2)ccc1N(C)CCO [LS 5-74]', 'nM', 1120),
  ('N#CC1(c2ccc(Nc3ncc(Cl)c(O[C@@H]4CO[C@H]5[C@@H]4OC[C@H]5O)n3)cc2)CCCC1 [LS 5-58]', 'nM', 161),
  ('CN1CCN(C2CCN(c3c(Cl)cc(Nc4ncc(Cl)c(O[C@@H]5CO[C@H]6[C@@H]5OC[C@H]6O)n4)cc3Cl)CC2)CC1 [LS 5-16]', 'nM', 354),
  ('C=CC(=O)Nc1cc(Nc2ncc(Cl)c(O[C@@H]3CO[C@H]4[C@@H]3OC[C@H]4O)n2)ccc1N1C[C@H]2C[C@@H]1CN2C [LS 5-154]', 'nM', 800);

====

# measured on: UniProtKB P52333
# assay notes: Z′-Lyte kinase inhibitory activity test
# Assay type: biochemical
# measurement parameters: ATP concentration 1 mM; in μM
measurement name: IC50

INSERT INTO assay_data (smiles, measured_on, experimental_value) VALUES
  ('COc1cc(Nc2ncc(Cl)c(O[C@@H]3CO[C@H]4[C@@H]3OC[C@H]4O)n2)ccc1N1CCC(N2CCN(C)CC2)CC1', 'UniProtKB P52333', '> 10 µM');

====

In this section we review reported pIC50 values for a set of compounds.
# measured on: JAK2 (Homo sapiens (Human))
# Sequence (O60674 whole entry): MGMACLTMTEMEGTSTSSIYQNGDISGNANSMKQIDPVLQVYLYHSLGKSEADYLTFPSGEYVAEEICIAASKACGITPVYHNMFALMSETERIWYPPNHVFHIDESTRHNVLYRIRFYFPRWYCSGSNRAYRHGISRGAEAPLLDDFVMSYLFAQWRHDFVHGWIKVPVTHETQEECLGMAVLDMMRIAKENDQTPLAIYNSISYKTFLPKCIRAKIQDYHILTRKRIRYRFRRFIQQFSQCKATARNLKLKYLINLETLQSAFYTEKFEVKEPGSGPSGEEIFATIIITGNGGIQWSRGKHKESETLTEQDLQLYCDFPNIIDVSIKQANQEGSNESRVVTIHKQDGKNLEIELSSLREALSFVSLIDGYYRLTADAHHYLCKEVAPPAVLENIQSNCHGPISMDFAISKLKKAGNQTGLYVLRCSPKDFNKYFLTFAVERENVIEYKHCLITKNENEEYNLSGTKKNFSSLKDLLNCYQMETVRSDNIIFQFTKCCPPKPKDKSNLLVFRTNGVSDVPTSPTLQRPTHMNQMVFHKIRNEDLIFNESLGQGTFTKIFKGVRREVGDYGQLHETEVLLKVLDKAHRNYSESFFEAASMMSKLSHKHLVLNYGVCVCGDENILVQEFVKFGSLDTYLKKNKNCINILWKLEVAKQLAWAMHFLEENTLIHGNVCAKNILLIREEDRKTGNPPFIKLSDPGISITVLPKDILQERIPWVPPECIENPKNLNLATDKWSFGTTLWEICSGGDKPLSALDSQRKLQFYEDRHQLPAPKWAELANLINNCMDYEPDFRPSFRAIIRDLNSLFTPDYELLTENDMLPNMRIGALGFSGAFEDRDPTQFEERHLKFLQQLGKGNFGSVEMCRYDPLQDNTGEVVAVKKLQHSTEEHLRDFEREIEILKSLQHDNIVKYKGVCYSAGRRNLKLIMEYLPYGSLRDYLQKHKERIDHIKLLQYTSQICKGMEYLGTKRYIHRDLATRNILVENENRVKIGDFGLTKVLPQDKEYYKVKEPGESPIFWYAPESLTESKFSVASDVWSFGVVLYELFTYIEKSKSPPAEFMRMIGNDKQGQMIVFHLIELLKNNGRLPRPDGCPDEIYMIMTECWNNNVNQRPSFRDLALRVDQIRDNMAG
# assay notes: Z′-Lyte kinase inhibitory activity test
# Format: biochemical
# measurement parameters: ATP concentration Km
pIC50: −log10 of the molar value.
measurement name: pIC50

INSERT INTO assay_data (compound, experimental_value) VALUES
  ('COc1cc(Nc2ncc(Cl)c(O[C@@H]3CO[C@H]4[C@@H]3OC[C@H]4O)n2)ccc1N1CCC(N2CCN(C)CC2)CC1', 6.27),
  ('C=CC(=O)Nc1cc(Nc2ncc(Cl)c(O[C@@H]3CO[C@H]4[C@@H]3OC[C@H]4O)n2)ccc1N1CCC(N(C)C)C1 (stereo partly drawn)', 6.22),
  ('C/C=C/C(=O)Nc1cc(Nc2ncc(Cl)c(O[C@@H]3CO[C@H]4[C@@H]3OC[C@H]4O)n2)ccc1N1CCC(N2CCN(C)CC2)CC1', 5.81);

====

# Tested on: human chronic myeloid leukemia cell line K562
# assay notes: CCK-8 in vitro proliferation inhibition
# Format: cell-based
# measurement parameters: Homo sapiens, K562, 72 hours, read-out: Inhibitory activity (IC50) on cell proliferation, K562
In this section we review reported IC50 values for a set of compounds.
measurement name: IC50 (µM)

INSERT INTO results (compound, experimental_value) VALUES
  ('C=CC(=O)Nc1cc(Nc2ncc(Cl)c(O[C@@H]3CO[C@H]4[C@@H]3OC[C@@H]4F)n2)ccc1N1CCN(CC)CC1 [LS 6-78]', 0.525),
  ('C=CC(=O)Nc1cc(Nc2ncc(Cl)c(O[C@@H]3CO[C@H]4[C@@H]3OC[C@H]4O)n2)ccc1N1CCC(N(C)C)C1 (stereo partly drawn) [LS 5-150]', 0.897),
  ('COc1cc(Nc2ncc(Cl)c(O[C@@H]3CO[C@H]4[C@@H]3OC[C@H]4O)n2)ccc1N1CCC(N2CCN(C)CC2)CC1 [LS 4-143]', 0.354);

====

# measured on: JAK3 (Homo sapiens (Human), UniProt P52333)
# assay notes: Z′-Lyte kinase inhibitory activity test
# Assay type: biochemical
# measurement parameters: ATP concentration Km
pIC50: −log10 of the molar value.
measurement name: pIC50

INSERT INTO assay_data (molecule, measured_on, measurement_name, experimental_value) VALUES
  ('C=CC(=O)Nc1cc(Nc2ncc(Cl)c(O[C@@H]3CO[C@H]4[C@@H]3OC[C@H]4O)n2)ccc1N1C[C@H]2C[C@@H]1CN2C', 'JAK3 (Homo sapiens (Human), UniProt P52333)', 'pIC50', 8.81),
  ('C=CC(=O)Nc1cc(Nc2ncc(Cl)c(O[C@@H]3CO[C@H]4[C@@H]3OC[C@H]4OC)n2)ccc1N1CCN(C)[C@@H](C)C1', 'JAK3 (Homo sapiens (Human), UniProt P52333)', 'pIC50', 8.77),
  ('CN1CCN(C2CCN(c3ccc(Nc4ncc(Cl)c(O[C@@H]5CO[C@H]6[C@@H]5OC[C@H]6O)n4)c(Cl)c3)CC2)CC1', 'JAK3 (Homo sapiens (Human), UniProt P52333)', 'pIC50', 5.19),
  ('CN1CCN(c2ccc(Nc3ncc(Cl)c(O[C@@H]4CO[C@H]5[C@@H]4OC[C@H]5O)n3)cc2)CC1', 'JAK3 (Homo sapiens (Human), UniProt P52333)', 'pIC50', 7.07),
  ('Cc1cc(Nc2ncc(Cl)c(O[C@@H]3CO[C@H]4[C@@H]3OC[C@H]4O)n2)cnc1N1CCC(N2CCN(C)CC2)CC1', 'JAK3 (Homo sapiens (Human), UniProt P52333)', 'pIC50', 7.08),
  ('C=CC(=O)Nc1cc(Nc2ncc(Cl)c(O[C@@H]3CO[C@H]4[C@@H]3OC[C@H]4OC)n2)ccc1N1CCOCC1', 'JAK3 (Homo sapiens (Human), UniProt P52333)', 'pIC50', 8.41),
  ('C=CC(=O)Nc1cc(Nc2ncc(Cl)cn2)ccc1N1CCC(N2CCN(C)CC2)CC1', 'JAK3 (Homo sapiens (Human), UniProt P52333)', 'pIC50', 8.41),
  ('C=CC(=O)Nc1cc(Nc2ncc(Cl)c(O[C@@H]3CO[C@H]4[C@@H]3OC[C@H]4O)n2)ccc1N1CCN(CC)CC1', 'JAK3 (Homo sapiens (Human), UniProt P52333)', 'pIC50', 8.66),
  ('C=CC(=O)Nc1cc(Nc2ncc(Cl)c(O[C@@H]3CO[C@H]4[C@@H]3OC[C@H]4O)n2)ccc1N1CCC2(CCN(C)CC2)CC1', 'JAK3 (Homo sapiens (Human), UniProt P52333)', 'pIC50', 8.26),
  ('C=CC(=O)Nc1cc(Nc2ncc(Cl)c(O[C@@H]3CO[C@H]4[C@@H]3OC[C@H]4O)n2)ccc1N(C)CCN(C)C', 'JAK3 (Homo sapiens (Human), UniProt P52333)', 'pIC50', 8.71),
  ('CN1CCN(c2ccc(Nc3ncc(Cl)c(O[C@@H]4CO[C@H]5[C@@H]4OC[C@H]5O)n3)cc2Cl)CC1', 'JAK3 (Homo sapiens (Human), UniProt P52333)', 'pIC50', 7.31),
  ('C=CC(=O)Nc1cc(Nc2ncc(Cl)c(O[C@@H]3CO[C@H]4[C@@H]3OC[C@H]4OC(C)C)n2)ccc1N(C)CCN(C)C', 'JAK3 (Homo sapiens (Human), UniProt P52333)', 'pIC50', 8.82),
  ('C=CC(=O)Nc1cc(Nc2ncc(Cl)c(O[C@@H]3CO[C@H]4[C@@H]3OC[C@H]4F)n2)ccc1N1CCN(CC)CC1', 'JAK3 (Homo sapiens (Human), UniProt P52333)', 'pIC50', 8.37),
  ('C=CC(=O)Nc1cc(Nc2ncc(Cl)c(O[C@@H]3CO[C@H]4[C@@H]3OC[C@@H]4F)n2)ccc1N1CCN(CC)CC1', 'JAK3 (Homo sapiens (Human), UniProt P52333)', 'pIC50', 8.40),
  ('COc1cc(Nc2ncc(Cl)c(O[C@H]3CO[C@H]4[C@@H]3OC[C@H]4O)n2)ccc1N1CCN(C)CC1', 'JAK3 (Homo sapiens (Human), UniProt P52333)', 'pIC50', 6.20),
  ('C=CC(=O)Nc1cc(Nc2ncc(Cl)c(O[C@@H]3CO[C@H]4[C@@H]3OC[C@H]4O)n2)ccc1N1CCOCC1', 'JAK3 (Homo sapiens (Human), UniProt P52333)', 'pIC50', 8.23),
  ('CN1CCN(C2CCN(c3ccc(Nc4ncc(Cl)c(O[C@@H]5CO[C@H]6[C@@H]5OC[C@H]6O)n4)cc3)CC2)CC1', 'JAK3 (Homo sapiens (Human), UniProt P52333)', 'pIC50', 7.18),
  ('C=CC(=O)Nc1cc(Nc2ncc(Cl)c(O[C@@H]3CO[C@H]4[C@@H]3OC[C@H]4O)n2)ccc1N(C)CCO', 'JAK3 (Homo sapiens (Human), UniProt P52333)', 'pIC50', 8.37),
  ('C=CC(=O)Nc1cc(Nc2ncc(Cl)c(O[C@@H]3CO[C@H]4[C@@H]3OC[C@H]4OC)n2)ccc1N(C)CCN(C)C', 'JAK3 (Homo sapiens (Human), UniProt P52333)', 'pIC50', 8.90),
  ('C=C(C)C(=O)Nc1cc(Nc2ncc(Cl)c(O[C@@H]3CO[C@H]4[C@@H]3OC[C@H]4O)n2)ccc1N1CCC(N2CCN(C)CC2)CC1', 'JAK3 (Homo sapiens (Human), UniProt P52333)', 'pIC50', 7.14),
  ('CCN1CCN(Cc2ccc(Nc3ncc(Cl)c(O[C@@H]4CO[C@H]5[C@@H]4OC[C@H]5O)n3)nc2)CC1', 'JAK3 (Homo sapiens (Human), UniProt P52333)', 'pIC50', 5.24),
  ('CN1CCN(C2CCN(c3c(Cl)cc(Nc4ncc(Cl)c(O[C@@H]5CO[C@H]6[C@@H]5OC[C@H]6O)n4)cc3Cl)CC2)CC1', 'JAK3 (Homo sapiens (Human), UniProt P52333)', 'pIC50', 6.85),
  ('N#CC1(c2ccc(Nc3ncc(Cl)c(O[C@@H]4CO[C@H]5[C@@H]4OC[C@H]5O)n3)cc2)CCCC1', 'JAK3 (Homo sapiens (Human), UniProt P52333)', 'pIC50', 6.92),
  ('C=CC(=O)Nc1cc(Nc2ncc(Cl)c(O[C@@H]3CO[C@H]4[C@@H]3OC[C@H]4O)n2)ccc1N1CCC(N(C)C)CC1', 'JAK3 (Homo sapiens (Human), UniProt P52333)', 'pIC50', 8.60),
  ('C=CC(=O)Nc1cc(Nc2ncc(Cl)c(O[C@@H]3CO[C@H]4[C@@H]3OC[C@@H]4F)n2)ccc1N(C)CCN(C)C', 'JAK3 (Homo sapiens (Human), UniProt P52333)', 'pIC50', 8.89),
  ('C=CC(=O)Nc1cc(Nc2ncc(Cl)c(O[C@@H]3CO[C@H]4[C@@H]3OC[C@H]4OCC)n2)ccc1N(C)CCN(C)C', 'JAK3 (Homo sapiens (Human), UniProt P52333)', 'pIC50', 8.89),
  ('C=CC(=O)Nc1cc(Nc2ncc(Cl)c(O[C@@H]3CO[C@H]4[C@@H]3OC[C@H]4O)n2)ccc1N1CCC(N(C)C)C1 (stereo partly drawn)', 'JAK3 (Homo sapiens (Human), UniProt P52333)', 'pIC50', 8.70);

Recorded values, source patent US20230348487A1.
